Molecular target: human Nav1.7 channels stably expressed in HEK 293 cells (Homo sapiens)
Construct: expressed in transfected cells; host or cells: HEK 293
Sequence (Q15858 whole entry): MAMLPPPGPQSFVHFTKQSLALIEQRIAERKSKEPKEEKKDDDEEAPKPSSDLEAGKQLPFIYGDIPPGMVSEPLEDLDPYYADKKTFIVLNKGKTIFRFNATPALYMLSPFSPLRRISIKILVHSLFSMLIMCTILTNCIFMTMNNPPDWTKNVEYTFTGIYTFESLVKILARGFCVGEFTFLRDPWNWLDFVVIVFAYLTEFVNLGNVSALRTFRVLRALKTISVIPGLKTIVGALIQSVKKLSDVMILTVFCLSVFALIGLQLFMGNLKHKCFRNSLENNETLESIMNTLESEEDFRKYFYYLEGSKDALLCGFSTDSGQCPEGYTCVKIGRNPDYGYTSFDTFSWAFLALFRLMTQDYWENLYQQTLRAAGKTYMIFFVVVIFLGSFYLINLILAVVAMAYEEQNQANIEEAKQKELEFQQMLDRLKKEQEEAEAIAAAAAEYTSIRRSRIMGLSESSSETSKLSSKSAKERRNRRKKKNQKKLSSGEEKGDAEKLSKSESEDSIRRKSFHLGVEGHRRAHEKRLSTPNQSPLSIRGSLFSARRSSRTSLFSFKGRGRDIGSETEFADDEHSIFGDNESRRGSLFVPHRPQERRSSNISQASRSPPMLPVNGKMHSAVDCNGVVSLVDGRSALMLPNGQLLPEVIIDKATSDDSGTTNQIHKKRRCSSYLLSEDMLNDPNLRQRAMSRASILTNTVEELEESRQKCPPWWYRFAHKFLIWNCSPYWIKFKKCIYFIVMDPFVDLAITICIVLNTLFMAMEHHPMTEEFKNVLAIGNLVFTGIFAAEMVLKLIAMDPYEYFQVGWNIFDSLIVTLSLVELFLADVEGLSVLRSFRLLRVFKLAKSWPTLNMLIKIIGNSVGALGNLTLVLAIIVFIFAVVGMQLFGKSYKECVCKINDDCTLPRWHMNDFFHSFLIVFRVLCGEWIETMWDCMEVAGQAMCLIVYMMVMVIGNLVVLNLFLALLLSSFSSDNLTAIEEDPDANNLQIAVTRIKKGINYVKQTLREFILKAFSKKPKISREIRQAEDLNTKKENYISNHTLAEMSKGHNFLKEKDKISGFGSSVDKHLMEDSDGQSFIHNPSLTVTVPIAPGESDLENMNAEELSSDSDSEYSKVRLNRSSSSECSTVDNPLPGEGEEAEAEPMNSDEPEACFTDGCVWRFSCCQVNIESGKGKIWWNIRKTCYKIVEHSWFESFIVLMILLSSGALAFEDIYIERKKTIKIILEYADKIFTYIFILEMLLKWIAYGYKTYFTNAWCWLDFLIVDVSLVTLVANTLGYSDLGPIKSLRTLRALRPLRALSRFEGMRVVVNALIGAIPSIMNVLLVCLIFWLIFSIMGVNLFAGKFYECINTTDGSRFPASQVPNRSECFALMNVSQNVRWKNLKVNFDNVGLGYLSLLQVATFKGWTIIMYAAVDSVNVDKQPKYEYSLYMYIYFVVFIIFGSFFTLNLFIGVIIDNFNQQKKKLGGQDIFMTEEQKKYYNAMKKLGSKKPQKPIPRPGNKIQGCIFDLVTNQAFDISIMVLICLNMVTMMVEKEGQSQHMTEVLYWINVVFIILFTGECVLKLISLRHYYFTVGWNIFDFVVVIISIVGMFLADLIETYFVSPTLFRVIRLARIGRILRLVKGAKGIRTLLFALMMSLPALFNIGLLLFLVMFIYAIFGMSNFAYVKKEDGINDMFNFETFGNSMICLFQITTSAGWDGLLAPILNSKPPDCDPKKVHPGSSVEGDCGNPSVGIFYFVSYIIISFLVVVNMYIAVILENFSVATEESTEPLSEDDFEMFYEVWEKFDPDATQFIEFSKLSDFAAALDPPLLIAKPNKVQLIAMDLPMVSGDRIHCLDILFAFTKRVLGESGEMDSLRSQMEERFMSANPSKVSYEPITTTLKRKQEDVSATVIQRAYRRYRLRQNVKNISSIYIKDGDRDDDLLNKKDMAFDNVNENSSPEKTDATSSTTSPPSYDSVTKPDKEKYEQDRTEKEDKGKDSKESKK
Experiment: Qube automated patch-clamp assay, inhibition of sodium current
Format: cell-based
Conditions: holding potential −80 mV; max concentration tested 33750 nM; read-out: NaV1.7 (nM); −80 mV
Let's look at some compounds and their measured IC50.
The reply should contain only the number, in nM.

Completed entries (count: 2):
[
  {
    "COMPOUND": "C[C@@H](N)C(CNc1cc(F)c(S(=O)(=O)Nc2ncns2)cc1F)CC1CCCCC1CCN (single isomer, unassigned) [Example 66]",
    "IC50 / nM": 12600
  },
  {
    "COMPOUND": "C[C@@H](N)C(CNc1cc(F)c(S(=O)(=O)Nc2ncns2)cc1F)CC1CNCC1(C)C (single isomer, unassigned)",
    "IC50 / nM": 328
  }
]

(Q) // lookup IC50 for C[C@@H](N)[C@H](CNc1ccc(S(=O)(=O)Nc2ncns2)c(F)c1)CC(CCN)C1CC1 (single isomer, unassigned)
(A) 1390

(Q) Next up: C[C@@H](N)C(CNc1cc(F)c(S(=O)(=O)Nc2ncns2)cc1F)C[C@@]1(C)CCC[C@@H]1CN (single isomer, unassigned)
(A) 28
